Here is a set of molecules with reported IC50 for Tyrosine-protein phosphatase non-receptor type 1 (Homo sapiens, UniProt P18031), compiled from the literature.
MEASURE NAME: IC50 (µM)

Known results for molecules:
[[record]]
molecule = "N#Cc1c2c(nn(-c3ccc(F)cc3)c1=N)CSCC2"
measured_number = 2

[[record]]
molecule = "Cc1ccc(-c2ccc(O)cc2)c(C(=C2C=CC(=O)C=C2)c2ccc(O)cc2)c1C#Cc1ccc(O)cc1"
measured_number = 13.8

[[record]]
molecule = "O=C1NC(=O)/C(=C/c2ccccc2OCc2ccc(Cl)cc2Cl)N1"
measured_number = 4.1

[[record]]
molecule = "CC(C)[C@H]1c2cc3[nH]c2=C(c2ccc(-c4ccc[nH]4)o2)[C@@H]1CCCCCCCC=3"
measured_number = 10

[[record]]
molecule = "O=C1C=CC(=C(c2ccc(O)cc2)c2c(-c3ccc(O)cc3O)ccc(CO)c2C#Cc2ccc(O)cc2)C=C1"
measured_number = 15.9

[[record]]
molecule = "COC1=CC2=N/C1=C\\c1ccc([nH]1)CCCC/C=C/CCCC1=CC=C2O1"
measured_number = 23

[[record]]
molecule = "O=C1CC(c2cccc(F)c2)Oc2cc(O)cc(O)c21 (centres undefined)"
measured_number = 7.98

[[record]]
molecule = "C=CCCCCc1ccc(/C=C2\\N=C(c3ccc(CCCC=C)s3)C=C2OC)[nH]1"
measured_number = 28

[[record]]
molecule = "CC(C)=CCc1c(O)ccc2c1O/C(=C\\c1ccc(O)cc1)C2=O"
measured_number = 11.3

[[record]]
molecule = "CCCCCCCCCCCCC/C=C/[C@@]12C(=O)O[C@@H](C)[C@@H]1[C@H](C(C)=O)C(C(=O)O)=CC2CCCCCCCCCCCC (some centres undefined)"
measured_number = 0.27


A: O=C(c1ccccc1)C(Cc1ccc(Br)c(C(F)(F)P(=O)(O)O)c1)(Cc1ccc2cc(Br)c(C(F)(F)P(=O)(O)O)cc2c1)n1nnc2ccccc21 (centres undefined)
B: CCCCCCCCCCCC[C@@H]1C=C2C(=O)O[C@@]3(C)O[C@@]4(C)OC(=O)[C@]1(C=O)[C@H]4[C@@H]23
Q: Given the two records A and B , choose the one whose IC50 value is lower. I would appreciate it if you answered with the label of your choice.
A: A

a: CCCCCCCCCCCC/C=C/[C@@]12C(=O)O[C@@H](C)[C@@H]1[C@H]1C(=C[C@H]2CCCCCCCCCCCC)C(=O)O[C@H]1C
b: COc1cc(C=O)ccc1C1=NOC(c2ccccn2)C1 (centres undefined)
c: COc1c(C2=NOC(c3ccccc3)C2)ccc2c1C=CC(C)(C)O2 (centres undefined)
Q: Rank order required: IC50, descending. Sort and list the labels as requested.
A: b, c, a
(b: 485 µM, c: 70 µM, a: 3.25 µM)

a: O=C1NC(=O)/C(=C/c2cccc(OCc3ccc(Cl)cc3)c2)N1
b: Cc1ccc(COc2cc(C(N)=O)cc3c(Br)c(C(F)(F)P(=O)(O)O)sc23)cc1C
c: CCCCCCCCCCCCC/C=C/[C@@]12C(=O)O[C@@H](C)[C@@H]1[C@H]1C(=CC2CCCCCCCCCCCC)C(=O)O[C@H]1C (some centres undefined)
Q: Rank order required: IC50, descending. Sort and list the labels as requested.
A: a, c, b

a: COc1cc(/C=C2\SC(=O)NC2=O)ccc1OS(=O)(=O)Cc1ccccc1
b: COc1cc(/C=C2\SC(=O)NC2=O)ccc1OS(=O)(=O)c1ccc(Cl)cc1
Q: Pick one: a or b . Which has the bigger IC50 number? I would appreciate it if you answered with the label of your choice.
A: a

a: O=C1CC(c2cccc(Br)c2)Oc2cc(O)cc(O)c21 (centres undefined)
b: CO[C@H]1O[C@H](Cn2cc(CNc3nc(Cl)c4ncn(Cc5cn(C[C@H]6O[C@H](OC)[C@H](OCc7ccccc7)[C@@H](OCc7ccccc7)[C@@H]6OCc6ccccc6)nn5)c4n3)nn2)[C@@H](OCc2ccccc2)[C@H](OCc2ccccc2)[C@H]1OCc1ccccc1
Q: Given the two records a and b , choose the one whose IC50 value is lower. I would appreciate it if you answered with the label of your choice.
A: b
(b: 2.2 µM, a: 7.33 µM)

I: COc1nc(NCc2cn(C[C@H]3O[C@H](OC)[C@H](OCc4ccccc4)[C@@H](OCc4ccccc4)[C@@H]3OCc3ccccc3)nn2)nc2c1ncn2Cc1cn(C[C@H]2O[C@H](OC)[C@H](OCc3ccccc3)[C@@H](OCc3ccccc3)[C@@H]2OCc2ccccc2)nn1
II: CO[C@H]1O[C@H](Cn2cc(CNc3nc(Cl)c4ncn(Cc5cn(C[C@H]6O[C@H](OC)[C@H](OCc7ccccc7)[C@@H](OCc7ccccc7)[C@H]6OCc6ccccc6)nn5)c4n3)nn2)[C@H](OCc2ccccc2)[C@H](OCc2ccccc2)[C@H]1OCc1ccccc1
III: CC(=O)Oc1ccc(C2=NOC(c3ccccc3)C2)c(OC(C)=O)c1 (centres undefined)
Q: Rank order required: IC50, descending. Sort and list the labels as requested.
A: III, I, II
